experiment: Kinetic solubility of the compound at pH 7.4; assay type: physicochemical; conditions: buffer, read-out: Kinetic_solubility
test readout: solubility kinetic (µM)

COC[C@@H]1COC(=O)N1c1cn2c(n1)-c1ccc(N3CCC[C@H]3C(N)=O)cc1OCC2 ... 137

I: NC(=O)[C@@H]1CCCN1c1ccc2c(c1)OCCn1cc(N3CCn4nccc4C3=O)nc1-2
II: NC(=O)[C@@H]1CCCN1c1ccc2c(c1)OCCn1cc(N3CCCOCC3=O)nc1-2
stdin: // returns I or II , whichever has the lower solubility kinetic Pick one and reply with its label.
stdout: I

I: NC(=O)[C@@H]1CCCN1c1ccc2c(c1)OCCn1cc(N3C(=O)OC[C@H]3C(F)F)nc1-2
II: NC(=O)[C@@H]1CCCN1c1ccc2c(c1)OCCn1cc(N3C(=O)OC[C@H]3CF)nc1-2
III: C[C@@H]1CN(c2cn3c(n2)-c2ccc(N4CCC[C@H]4C(N)=O)cc2OCC3)C(=O)O1
stdin: Order the records by solubility kinetic, with each subsequent value no larger than the one before. // format: requested-order list of labels
stdout: II, III, I
(II: 159 µM, III: 52 µM, I: 11 µM)

// provenance: ChEMBL document CHEMBL5150064
